Provenance of the data: patent US5387602A

System: CO in intact RBL-1 cells (Rattus norvegicus, UniProt Q63921)
Construct: 5-LO and CO in intact RBL-1 cells; endogenous in cells
Sequence (Q63921 27-602): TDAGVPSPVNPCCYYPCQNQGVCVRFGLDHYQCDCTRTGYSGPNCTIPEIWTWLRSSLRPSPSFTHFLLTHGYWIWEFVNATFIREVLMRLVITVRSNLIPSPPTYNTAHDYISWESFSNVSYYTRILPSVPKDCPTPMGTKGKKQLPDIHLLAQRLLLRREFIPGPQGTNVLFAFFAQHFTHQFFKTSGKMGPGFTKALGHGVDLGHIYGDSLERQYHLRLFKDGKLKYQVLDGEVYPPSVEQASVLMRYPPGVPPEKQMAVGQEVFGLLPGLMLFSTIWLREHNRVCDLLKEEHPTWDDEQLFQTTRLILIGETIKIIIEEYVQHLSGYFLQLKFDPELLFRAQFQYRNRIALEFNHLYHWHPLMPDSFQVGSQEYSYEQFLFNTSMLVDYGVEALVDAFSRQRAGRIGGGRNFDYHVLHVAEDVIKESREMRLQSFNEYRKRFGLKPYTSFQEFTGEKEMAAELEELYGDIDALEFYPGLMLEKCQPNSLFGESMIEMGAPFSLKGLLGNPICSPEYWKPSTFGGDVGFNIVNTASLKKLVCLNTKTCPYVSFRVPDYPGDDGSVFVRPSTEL
Measurement description: Procedure III: inhibition of CO in intact RBL-1 cells
Result type: pIC50
Scale note: pIC50 = -log10(concentration in M).

Check out these entries, answers already filled in.
>>> readout_value("COc1ccc(-n2nc(COC(=O)NO)cc2-c2ccc(Cl)cc2)cc1")
5.85
>>> readout_value("COc1ccc(-n2nc(CCOC(=O)N(C)O)c(Cl)c2-c2ccc(Cl)cc2)cc1")
5.57
>>> readout_value("COc1ccc(-n2nc(CCCOC(=O)N(O)C(C)C)cc2-c2ccc(Cl)cc2)cc1")
5.91

Kindly review the next compound as well.
Looking up `COc1ccc(-n2nc(COC(=O)N(C)O)c(Br)c2-c2ccc(C)cc2)cc1` , I found its pIC50 recorded as 7.10
